Species on record: Homo sapiens
TEST DETAILS: Cytotoxicity against human MDA1986 cells assessed as membrane disintegration by phase contrast microscopy
Assay type: functional, cell-based
Activity calls are given as the source filed them. The rule behind the calls is not given here.
VALUE KIND: Activity

>  <COMPOUND>
CC(=O)N[C@H]1[C@H](O[C@H]2CC[C@]3(C)[C@H]4CC=C5[C@@H]6CC(C)(C)CC[C@]6(C(=O)O)CC[C@@]5(C)[C@]4(C)CC[C@H]3C2(C)C)O[C@H](CO[C@@H]2OC[C@H](O)[C@H](O)[C@H]2O)[C@@H](O)[C@@H]1O

>  <VALUE KIND>
Activity

>  <RESULT>
inactive

$$$$
>  <COMPOUND>
CC1(C)CC[C@]2(C(=O)O)CC[C@]3(C)C(=CC[C@@H]4[C@@]5(C)CC[C@H](O[C@@H]6O[C@H](CO[C@@H]7OC[C@H](O)[C@H](O)[C@H]7O[C@@H]7OC[C@@H](O)[C@H](O)[C@H]7O)[C@@H](O)[C@H](O)[C@H]6O)C(C)(C)[C@@H]5CC[C@]43C)[C@@H]2C1 [PITHEDULOSIDE C]

>  <VALUE KIND>
Activity

>  <RESULT>
inactive

$$$$
>  <COMPOUND>
CC1(C)CC[C@]2(C(=O)O)CC[C@]3(C)C(=CC[C@@H]4[C@@]5(C)CC[C@H](O[C@@H]6O[C@H](CO[C@@H]7OC[C@H](O)[C@H](O)[C@H]7O[C@@H]7OC[C@H](O)[C@H](O)[C@H]7O)[C@@H](O)[C@H](O)[C@H]6O)C(C)(C)[C@@H]5CC[C@]43C)[C@@H]2C1

>  <VALUE KIND>
Activity

>  <RESULT>
inactive

$$$$
>  <COMPOUND>
CC(=O)N[C@H]1[C@H](O[C@H]2CC[C@]3(C)[C@H]4CC=C5[C@@H]6CC(C)(C)CC[C@]6(C(=O)O)[C@H](O)C[C@@]5(C)[C@]4(C)CC[C@H]3C2(C)C)O[C@H](CO[C@@H]2OC[C@H](O)[C@H](O)[C@H]2O)[C@@H](O)[C@@H]1O

>  <VALUE KIND>
Activity

>  <RESULT>
inactive

$$$$

* * *

TEST DETAILS: Cytotoxicity against human MDA1986 cells assessed as cell viability by MTS assay
Assay type: functional, cell-based
Measured IC50 values are reported for all entries that follow.

>  <MOLECULE>
CC(=O)N[C@H]1[C@H](O[C@H]2CC[C@]3(C)[C@H]4CC=C5[C@@H]6CC(C)(C)[C@@H]7C[C@]6(C(=O)O7)[C@H](O)C[C@@]5(C)[C@]4(C)CC[C@H]3C2(C)C)O[C@H](CO[C@@H]2OC[C@H](O)[C@H](O)[C@H]2O[C@@H]2OC[C@@H](O)[C@H](O)[C@H]2O)[C@@H](O)[C@@H]1O [PROSAPOGENIN 4]

>  <IC50>
> 20 µM

$$$$
>  <MOLECULE>
CC1(C)CC[C@]2(C(=O)O)[C@H](O)C[C@]3(C)C(=CC[C@@H]4[C@@]5(C)CC[C@H](O[C@@H]6O[C@H](CO[C@@H]7OC[C@H](O)[C@H](O)[C@H]7O[C@@H]7OC[C@H](O)[C@H](O)[C@H]7O)[C@@H](O)[C@H](O)[C@H]6O[C@@H]6O[C@H](CO)[C@@H](O)[C@H](O)[C@H]6O)C(C)(C)[C@@H]5CC[C@]43C)[C@@H]2C1

>  <IC50>
> 20 µM

$$$$

Give me measured IC50, please, for this molecule: `CC(=O)N[C@H]1[C@H](O[C@H]2CC[C@]3(C)[C@H]4CC=C5[C@@H]6CC(C)(C)CC[C@]6(C(=O)O)[C@H](O)C[C@@]5(C)[C@]4(C)CC[C@H]3C2(C)C)O[C@H](CO[C@@H]2OC[C@H](O)[C@H](O)[C@H]2O)[C@@H](O)[C@@H]1O`
1.8 µM

Give me measured IC50, please, for this molecule: `CC(=O)N[C@H]1[C@H](O[C@H]2CC[C@]3(C)[C@H]4CC=C5[C@@H]6CC(C)(C)[C@@H]7C[C@]6(C(=O)O7)[C@H](O)C[C@@]5(C)[C@]4(C)CC[C@H]3C2(C)C)O[C@H](CO[C@@H]2OC[C@H](O)[C@H](O)[C@H]2O[C@@H]2OC[C@H](O)[C@H](O)[C@H]2O)[C@@H](O)[C@@H]1O`
> 20 µM

Give me measured IC50, please, for this molecule: `CC(=O)N[C@H]1[C@H](O[C@H]2CC[C@]3(C)[C@H]4CC=C5[C@@H]6CC(C)(C)CC[C@]6(C(=O)O)CC[C@@]5(C)[C@]4(C)CC[C@H]3C2(C)C)O[C@H](CO[C@@H]2OC[C@H](O)[C@H](O)[C@H]2O)[C@@H](O)[C@@H]1O`
7.3 µM

Give me measured IC50, please, for this molecule: `CC1(C)CC[C@]2(C(=O)O)[C@H](O)C[C@]3(C)C(=CC[C@@H]4[C@@]5(C)CC[C@H](O[C@@H]6O[C@H](CO[C@@H]7OC[C@H](O)[C@H](O)[C@H]7O[C@@H]7OC[C@@H](O)[C@H](O)[C@H]7O)[C@@H](O)[C@H](O)[C@H]6O[C@@H]6O[C@H](CO)[C@@H](O)[C@H](O)[C@H]6O)C(C)(C)[C@@H]5CC[C@]43C)[C@@H]2C1`
> 20 µM

* * *

TEST DETAILS: Cytotoxicity against human JMAR cells assessed as cell viability by MTS assay
Type: functional, cell-based
VALUE KIND: IC50
Record the result as a number with its unit.

Give me measured IC50, please, for this molecule: `CC(=O)N[C@H]1[C@H](O[C@H]2CC[C@]3(C)[C@H]4CC=C5[C@@H]6CC(C)(C)CC[C@]6(C(=O)O)CC[C@@]5(C)[C@]4(C)CC[C@H]3C2(C)C)O[C@H](CO[C@@H]2OC[C@H](O)[C@H](O)[C@H]2O)[C@@H](O)[C@@H]1O`
8.7 µM

Give me measured IC50, please, for this molecule: `CC(=O)N[C@H]1[C@H](O[C@H]2CC[C@]3(C)[C@H]4CC=C5[C@@H]6CC(C)(C)CC[C@]6(C(=O)O)[C@H](O)C[C@@]5(C)[C@]4(C)CC[C@H]3C2(C)C)O[C@H](CO[C@@H]2OC[C@H](O)[C@H](O)[C@H]2O)[C@@H](O)[C@@H]1O`
2.8 µM

* * *

TEST DETAILS: Cytotoxicity against human MDA1986 cells assessed as cell viability by MTS assay
Format: functional, cell-based
Measured pIC50 values are reported for all entries that follow.
Please keep in mind that pIC50 is minus log10 of the molar concentration; only the number is needed.

>  <MOLECULE>
CC1(C)CC[C@]2(C(=O)O)CC[C@]3(C)C(=CC[C@@H]4[C@@]5(C)CC[C@H](O[C@@H]6O[C@H](CO[C@@H]7OC[C@H](O)[C@H](O)[C@H]7O[C@@H]7OC[C@@H](O)[C@H](O)[C@H]7O)[C@@H](O)[C@H](O)[C@H]6O)C(C)(C)[C@@H]5CC[C@]43C)[C@@H]2C1 [PITHEDULOSIDE C]

>  <pIC50>
5.05

$$$$

Shifting focus to the molecule that follows.
Give me measured pIC50, please, for this molecule: `CC1(C)CC[C@]2(C(=O)O)CC[C@]3(C)C(=CC[C@@H]4[C@@]5(C)CC[C@H](O[C@@H]6O[C@H](CO[C@@H]7OC[C@H](O)[C@H](O)[C@H]7O[C@@H]7OC[C@H](O)[C@H](O)[C@H]7O)[C@@H](O)[C@H](O)[C@H]6O)C(C)(C)[C@@H]5CC[C@]43C)[C@@H]2C1`
5.09

* * *

Test system: SK-MEL-28
TEST DETAILS: Cytotoxicity against human SK-MEL-28 cells harboring BRAF […]/PTEN mutation assessed as cell viability by MTS assay
Type: functional, cell-based
VALUE KIND: IC50

>  <MOLECULE>
CC(=O)N[C@H]1[C@H](O[C@H]2CC[C@]3(C)[C@H]4CC=C5[C@@H]6CC(C)(C)CC[C@]6(C(=O)O)[C@H](O)C[C@@]5(C)[C@]4(C)CC[C@H]3C2(C)C)O[C@H](CO[C@@H]2OC[C@H](O)[C@H](O)[C@H]2O)[C@@H](O)[C@@H]1O

>  <IC50>
9.2 µM

$$$$
>  <MOLECULE>
CC1(C)CC[C@]2(C(=O)O)[C@H](O)C[C@]3(C)C(=CC[C@@H]4[C@@]5(C)CC[C@H](O[C@@H]6O[C@H](CO[C@@H]7OC[C@H](O)[C@H](O)[C@H]7O[C@@H]7OC[C@H](O)[C@H](O)[C@H]7O)[C@@H](O)[C@H](O)[C@H]6O[C@@H]6O[C@H](CO)[C@@H](O)[C@H](O)[C@H]6O)C(C)(C)[C@@H]5CC[C@]43C)[C@@H]2C1

>  <IC50>
> 20 µM

$$$$
>  <MOLECULE>
CC1(C)CC[C@]2(C(=O)O)CC[C@]3(C)C(=CC[C@@H]4[C@@]5(C)CC[C@H](O[C@@H]6O[C@H](CO)[C@@H](O)[C@H](O)[C@H]6O[C@@H]6O[C@H](CO)[C@@H](O)[C@H](O)[C@H]6O)C(C)(C)[C@@H]5CC[C@]43C)[C@@H]2C1 [ACUTOSIDE A]

>  <IC50>
> 20 µM

$$$$

Give me measured IC50, please, for this molecule: `CC(=O)N[C@H]1[C@H](O[C@H]2CC[C@]3(C)[C@H]4CC=C5[C@@H]6CC(C)(C)[C@@H]7C[C@]6(C(=O)O7)[C@H](O)C[C@@]5(C)[C@]4(C)CC[C@H]3C2(C)C)O[C@H](CO[C@@H]2OC[C@H](O)[C@H](O)[C@H]2O[C@@H]2OC[C@H](O)[C@H](O)[C@H]2O)[C@@H](O)[C@@H]1O`
> 20 µM

Give me measured IC50, please, for this molecule: `CC1(C)CC[C@]2(C(=O)O)[C@H](O)C[C@]3(C)C(=CC[C@@H]4[C@@]5(C)CC[C@H](O[C@@H]6O[C@H](CO[C@@H]7OC[C@H](O)[C@H](O)[C@H]7O[C@@H]7OC[C@@H](O)[C@H](O)[C@H]7O)[C@@H](O)[C@H](O)[C@H]6O[C@@H]6O[C@H](CO)[C@@H](O)[C@H](O)[C@H]6O)C(C)(C)[C@@H]5CC[C@]43C)[C@@H]2C1`
> 20 µM

Give me measured IC50, please, for this molecule: `CC(=O)N[C@H]1[C@H](O[C@H]2CC[C@]3(C)[C@H]4CC=C5[C@@H]6CC(C)(C)CC[C@]6(C(=O)O)CC[C@@]5(C)[C@]4(C)CC[C@H]3C2(C)C)O[C@H](CO[C@@H]2OC[C@H](O)[C@H](O)[C@H]2O)[C@@H](O)[C@@H]1O`
12.4 µM

meta.source: ChEMBL document CHEMBL1765056
